test system: SK-MEL-2 melanoma; assay: NCI-60 one-dose screen, 48 h (100 = growth as untreated, 0 = no growth, -100 = all killed); conditions: 10 µM unless noted
This is part of a sample that, as a whole, favours compounds with a hit. Of some 83,000 tested, about 20% had one in any assay.
property.measured: growth (%)

[[record]]
compound = "C=C1C(=O)O[C@H]2[C@H]1CC/C(COC(=O)CCCC(=O)OC/C1=C/CC[C@@]3(C)O[C@H]3[C@H]3OC(=O)C(=C)[C@@H]3CC1)=C\\CC[C@@]1(C)O[C@@H]21"
numeric_result = 19.5

[[record]]
compound = "CC(C)C1(C(C)C)NC(=O)NC1=O"
numeric_result = 108

[[record]]
compound = "CCc1c(C)c2cc(-n3c(-c4ccc(OC)cc4)csc3=N)c(O)c(C)c2oc1=O"
numeric_result = 10.7

[[record]]
compound = "COc1ccc(C2CC(c3cc(Cl)c(C)cc3OC)=NN2c2ccc(S(N)(=O)=O)cc2)cc1OC (stereo unspecified)"
numeric_result = 95.8

[[record]]
compound = "COC1=C(OC)C(=O)C=CC1=O"
numeric_result = 112

[[record]]
compound = "CN1CCN(C(=O)/C=C/c2ccc([N+](=O)[O-])o2)CC1"
numeric_result = 59.5

[[record]]
compound = "CCOC(=O)NNc1nncc2ccccc12"
numeric_result = 119

[[record]]
compound = "Cc1nc(-c2ccc(Cl)cc2)ccc1NC(=O)Nc1cccc(C(F)(F)F)c1"
numeric_result = 95.4

[[record]]
compound = "COc1ccc(CNc2nc3ccccc3c3c(=O)c4ccccc4sc23)cc1OC"
numeric_result = 102

[[record]]
compound = "COc1ccc(C(=O)NC(=O)Nc2ccc3c(c2)NC(=O)/C3=C\\c2[nH]c(C)c(C(=O)O)c2C)cc1"
numeric_result = 93.8

[[record]]
compound = "Fc1cccc(F)c1C#Cc1ccc2cccnc2c1"
numeric_result = 84.4


###

Catalogue of growth readings, one per entry.
test system: OVCAR-3 ovarian; test: NCI-60 one-dose screen, 48 h (100 = growth as untreated, 0 = no growth, -100 = all killed); conditions: 10 µM unless noted
Compounds without any hit were thinned out: in the full panel of roughly 83,000, 20% have a hit. Active and inactive are the calls of the source. How the source made its calls: active means growth percent below 10; inactive means the rest.
property.measured: growth

[[record]]
compound = "COc1cccc(/C=N/C(=S)NC2(C)C3CCC(C3)C2(C)C)c1O (stereo unspecified)"
result = "73.2% (inactive)"

[[record]]
compound = "O=C(NCCNc1nccc(-c2c(-c3cccc(O)c3)nc3sccn23)n1)Nc1cccc(C(F)(F)F)c1"
result = "76.7% (inactive)"

[[record]]
compound = "CCCCC(=O)Nc1nc2ccc(SCCC)cc2s1"
result = "22.8% (inactive)"

[[record]]
compound = "Cc1cccc(NC(=O)CCc2ccc(N3C(N)=NC(N)=NC3(C)C)cc2)c1"
result = "65.6% (inactive)"

[[record]]
compound = "COc1ccc(C(=O)NC(=O)Nc2ccc3c(c2)NC(=O)/C3=C\\c2[nH]c(C)c(C(=O)O)c2C)cc1"
result = "52.7% (inactive)"

[[record]]
compound = "CCOC(=O)CSc1nnc(-c2cc3c([nH]c4ccccc43)c(-c3cccc(O)c3)n2)n1-c1ccc(C)cc1"
result = "31.1% (inactive)"

[[record]]
compound = "COC1=C(OC)C(=O)C=CC1=O"
result = "83.6% (inactive)"

[[record]]
compound = "O=C(NCCNc1nccc(-c2c(-c3cccc(O)c3)nc3sccn23)n1)c1cc(N2CCOCC2)cc(C(F)(F)F)c1"
result = "107% (inactive)"

[[record]]
compound = "CCCCCCCC(=O)SCC/C=C/[C@@H]1CC(=O)NCc2nc(cs2)C2=N[C@@](C)(CS2)C(=O)N[C@@H](C(C)C)C(=O)N1"
result = "-7.56% (active)"

[[record]]
compound = "NS(=O)(=O)c1ccc(-n2nc(-c3ccc(Cl)cc3)ccc2=O)cc1"
result = "106% (inactive)"

[[record]]
compound = "CC(NCCC(c1ccccc1)c1ccccc1)c1ccccc1 (stereo unspecified)"
result = "78.4% (inactive)"

